- test target: Histamine H3 (Cavia porcellus, UniProt Q9JI35)
- Construct: ileum longitudinal muscle myenteric plexus membranes; from tissue; host or cells: ileum longitudinal muscle myenteric plexus membranes of male Dunkin Hartley guinea pigs
- Sequence (Q9JI35 whole entry): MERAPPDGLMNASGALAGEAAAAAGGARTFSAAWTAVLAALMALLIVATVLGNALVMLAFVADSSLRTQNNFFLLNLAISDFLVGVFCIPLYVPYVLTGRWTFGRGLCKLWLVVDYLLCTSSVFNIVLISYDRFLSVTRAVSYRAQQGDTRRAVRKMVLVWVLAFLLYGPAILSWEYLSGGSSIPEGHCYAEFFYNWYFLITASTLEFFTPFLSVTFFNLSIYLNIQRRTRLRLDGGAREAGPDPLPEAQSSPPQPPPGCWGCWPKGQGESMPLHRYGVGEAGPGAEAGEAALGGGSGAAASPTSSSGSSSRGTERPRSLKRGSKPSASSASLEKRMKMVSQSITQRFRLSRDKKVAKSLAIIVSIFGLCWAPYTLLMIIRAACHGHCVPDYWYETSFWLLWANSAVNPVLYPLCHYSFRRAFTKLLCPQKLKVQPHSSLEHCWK
- assay remarks: Histamine H3 radioligand binding assay, [3H]-R-α-methylhistamine, guinea pig ileum longitudinal muscle myenteric plexus membranes
- measurement context: 3 nM [3H]-R-α-methylhistamine, 165 min, 21±3° C., Cheng Prusoff; variance ±0.12 log units
Threshold check on pK1 (binding assay): at or above 8 gives rule met, strictly below gives rule not met.

O=S(=O)(NCCCCc1c[nH]cn1)NCc1ccc(I)cc1 [Example 44] : rule met

Exercise: Is the recorded value of pK1 (binding assay) equal to or greater than 8 for this compound? O=S(=O)(/C=C/c1ccccc1)NCCc1c[nH]cn1 [Example 20]
Key: rule not met

Exercise: O=S(=O)(NCCCCCCCCc1c[nH]cn1)c1ccc2ccccc2c1 [Example 30] ?
Key: rule not met

Exercise: Can you handle O=S(=O)(NCCCCCCc1c[nH]cn1)NCc1ccc(I)cc1 [Example 61] next?
Key: rule met

Exercise: What about O=S(=O)(NCCCCCCCCCCc1c[nH]cn1)NCc1ccc(Cl)cc1 [Example 40] ?
Key: rule not met

Exercise: Here is the next compound: O=S(=O)(NCCCc1c[nH]cn1)NCc1ccc(Cl)cc1 [Example 14]
Key: rule not met

* * *

- test target: H3 receptor (Cavia porcellus, UniProt Q9JI35)
- Construct: the longitudinal muscle layer and adhering myenteric plexus was teased away; from tissue; host or cells: ileal longitudinal muscle with adhering myenteric plexus of male Dunkin-Hartley guinea pigs
- assay remarks: H3 receptor bioassay (functional assay), guinea pig ileal longitudinal muscle myenteric plexus
- Type: cell-based
- measurement context: antagonism of R-(α)-methylhistamine E/[A] curve, Schild's methods; electrically stimulated guinea pig ileum; variance ±0.15 log units; read-out: pKB (functional assay) (converted)
Recorded log10 Kb values for a group of compounds are listed next.
Quick note: numbers are log10 of Kb, with µM as the unit.

The following compounds have reported results that may help.
O=S(=O)(Cc1ccc(-c2ccccc2)cc1)NCCCCc1c[nH]cn1 [Example 84] : -2.10
O=S(=O)(Cc1ccc(Cl)cc1)NCCCCc1c[nH]cn1 [Example 10] : -2.62
O=S(=O)(CCc1ccc(Cl)cc1)NCCCCCc1c[nH]cn1 [Example 54] : -1.80
O=S(=O)(NCCCCCCCCc1c[nH]cn1)NCc1ccc(Cl)cc1 [Example 39] : -1.37
O=S(=O)(NCCCCc1c[nH]cn1)NCC1CCCCC1 [Example 51] : -1.01
O=S(=O)(CCCc1ccccc1)NCCc1c[nH]cn1 [Example 18] : -0.79

Exercise: Which log10 Kb value belongs to O=S(=O)(CCc1ccccc1)NCCc1c[nH]cn1 [Example 17] ?
Key: -0.35

Exercise: Again, but for O=S(=O)(NCCCCc1c[nH]cn1)NCc1ccccc1Cl [Example 43]
Key: -0.42

Exercise: Then what about the compound O=S(=O)(NCCCCCc1c[nH]cn1)NCc1ccc(I)cc1 [Example 66] ?
Key: -2.06

* * *

pK1 (binding assay) listing for selected compounds.
- test target: Histamine H3 (Cavia porcellus)
- Construct: ileum longitudinal muscle myenteric plexus membranes; from tissue; host or cells: ileum longitudinal muscle myenteric plexus membranes of male Dunkin Hartley guinea pigs
- assay remarks: Histamine H3 radioligand binding assay, [3H]-R-α-methylhistamine, guinea pig ileum longitudinal muscle myenteric plexus membranes
- measurement context: 3 nM [3H]-R-α-methylhistamine, 165 min, 21±3° C., Cheng Prusoff; variance ±0.12 log units
Just the number, please, no unit after it.

Some compounds with known pK1 (binding assay) results, for comparison:
O=S(=O)(Cc1ccc(Cl)cc1)NCCCCCCc1c[nH]cn1 : 7.95
O=S(=O)(Cc1ccc(F)cc1)NCCCCc1c[nH]cn1 : 8.13
O=S(=O)(NCCc1c[nH]cn1)c1ccc2ccccc2c1 : 7.77
O=S(=O)(NCCCCCc1c[nH]cn1)NCc1ccc(Cl)cc1 : 8.23
COc1ccc(CNS(=O)(=O)NCCCCc2c[nH]cn2)cc1 : 7.58

Exercise: Would you kindly share the measured pK1 (binding assay) for `O=S(=O)(CCC1CCCCC1)NCCc1c[nH]cn1` ?
Key: 7.55

Exercise: Try this compound too: `O=S(=O)(NCCCCc1c[nH]cn1)NCc1ccc(Br)cc1`
Key: 8.71

Exercise: Queued: `O=S(=O)(Cc1ccc(Cl)cc1)NCCCCCCCCCCc1c[nH]cn1`
Key: 7.23

Exercise: Now give it for `O=S(=O)(NCCCCCCc1c[nH]cn1)c1ccc2ccccc2c1` too.
Key: 7.49

Exercise: Also need `O=S(=O)(NCCCCCCCc1c[nH]cn1)NCc1ccc(Cl)cc1` , thanks.
Key: 8.15

Exercise: What do we get for `O=S(=O)(NCCCCCCCCCCc1c[nH]cn1)c1ccc2ccccc2c1` ?
Key: 7.07

Exercise: Param item: `O=S(=O)(NCCCCCc1c[nH]cn1)c1ccc2ccccc2c1`
Key: 7.50

Exercise: Now consider `O=S(=O)(NCCCCc1c[nH]cn1)NCc1ccc(Cl)cc1` .
Key: 8.56

Exercise: What do you have for `O=S(=O)(Cc1ccc(Cl)cc1)NCCCCc1c[nH]cn1` ?
Key: 8.53

Exercise: // same read-out, input: `O=S(=O)(NCCCCCCc1c[nH]cn1)NCc1ccc(Cl)cc1`
Key: 8.36

Exercise: Try `O=S(=O)(Cc1ccc(Cl)cc1)NCCCCCCCCc1c[nH]cn1` next.
Key: 7.27

Exercise: Same again, this time with `O=S(=O)(Cc1ccc(Cl)cc1)NCCCCCc1c[nH]cn1`
Key: 7.94

Exercise: Follow-up item: `O=S(=O)(NCCCCc1c[nH]cn1)c1ccc2ccccc2c1`
Key: 7.42

Exercise: Next compound up: `O=S(=O)(Cc1ccc(Cl)cc1)NCCCCCCCc1c[nH]cn1`
Key: 7.44

* * *

- test target: H3 receptor (Cavia porcellus)
- Construct: the longitudinal muscle layer and adhering myenteric plexus was teased away; from tissue; host or cells: ileal longitudinal muscle with adhering myenteric plexus of male Dunkin-Hartley guinea pigs
- assay remarks: H3 receptor bioassay (functional assay), guinea pig ileal longitudinal muscle myenteric plexus
- Type: cell-based
- measurement context: antagonism of R-(α)-methylhistamine E/[A] curve, Schild's methods; electrically stimulated guinea pig ileum; variance ±0.15 log units; read-out: pKB (functional assay) (converted)
Decide using Kb: a value greater than or equal to 90 nM is Y, a smaller one is N.

Solved entries (count: 8):
O=S(=O)(NCCc1c[nH]cn1)c1ccc(Cl)c(Cl)c1 [Example 16] : Y
O=S(=O)(NCCCCCCc1c[nH]cn1)c1ccc2ccccc2c1 [Example 8] : N
O=S(=O)(NCCCCCCc1c[nH]cn1)NCc1ccc(C(F)(F)F)cc1 [Example 60] : N
O=S(=O)(NCCCCc1c[nH]cn1)NCc1ccc(Cl)c(Cl)c1 [Example 41] : N
O=S(=O)(Cc1ccc(Cl)cc1)NCCCCCc1c[nH]cn1 [Example 9] : N
O=S(=O)(CCc1ccc(Cl)cc1)NCCCc1c[nH]cn1 [Example 53] : Y
O=S(=O)(NCCCCc1c[nH]cn1)NCc1ccc(Br)cc1 [Example 45] : N
O=S(=O)(NCCCCc1c[nH]cn1)NCc1ccc(-c2ccccc2)cc1 [Example 49] : N

Exercise: Please indicate if the recorded Kb for O=S(=O)(NCCCCc1c[nH]cn1)NCc1ccc2ccccc2c1 [Example 50] meets or exceeds 90 nM.
Key: N

Exercise: How about this molecule: COc1ccc(CNS(=O)(=O)NCCCCc2c[nH]cn2)cc1 [Example 48]
Key: N

Exercise: And then O=S(=O)(NCCc1c[nH]cn1)c1cccc2ccccc12 [Example 3] , what is it?
Key: Y

* * *

- test target: Histamine H3 (Cavia porcellus)
- Construct: ileum longitudinal muscle myenteric plexus membranes; from tissue; host or cells: ileum longitudinal muscle myenteric plexus membranes of male Dunkin Hartley guinea pigs
- assay remarks: Histamine H3 radioligand binding assay, [3H]-R-α-methylhistamine, guinea pig ileum longitudinal muscle myenteric plexus membranes
- measurement context: 3 nM [3H]-R-α-methylhistamine, 165 min, 21±3° C., Cheng Prusoff; variance ±0.12 log units
endpoint name: pK1 (binding assay)
Lab note: record the figure alone, no unit after it.

Check out these entries, answers already filled in.
O=S(=O)(NCCCCc1c[nH]cn1)NCc1ccc(F)cc1 : 7.84
O=S(=O)(NCCCCCCCc1c[nH]cn1)c1ccc2ccccc2c1 : 7.40
C[C@H](Cc1c[nH]cn1)NS(=O)(=O)c1ccc2ccccc2c1 : 8.44

For the next question, use this molecule.
Exercise: Item `O=S(=O)(NCCCCc1c[nH]cn1)NCc1ccc(-c2ccccc2)cc1` has what recorded pK1 (binding assay)?
Key: 8.12
